The measurements presented in this section are drawn from ChEMBL document CHEMBL1926535.

# study-target: Cell division protein FtsZ (Mycobacterium tuberculosis, UniProt P9WN95)
# Sequence (P9WN95 whole entry): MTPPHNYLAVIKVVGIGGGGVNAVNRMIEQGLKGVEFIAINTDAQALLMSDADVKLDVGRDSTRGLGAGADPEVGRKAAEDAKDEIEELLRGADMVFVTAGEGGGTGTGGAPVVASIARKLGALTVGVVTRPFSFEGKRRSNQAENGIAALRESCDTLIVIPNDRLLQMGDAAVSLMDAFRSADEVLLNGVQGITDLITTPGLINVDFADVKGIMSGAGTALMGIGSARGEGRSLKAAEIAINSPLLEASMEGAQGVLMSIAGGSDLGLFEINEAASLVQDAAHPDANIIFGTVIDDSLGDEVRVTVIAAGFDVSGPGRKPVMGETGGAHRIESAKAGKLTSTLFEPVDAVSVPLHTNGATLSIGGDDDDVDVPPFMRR
pIC50: −log10 of the molar value.

| molecule | pIC50 |
| --- | --- |
| CCOC(=O)Nc1cc(NC(C)CCCN(CC)CC)c2nc(-c3ccco3)c(-c3ccco3)nc2n1 (centres undefined) | 4.57 |
| CCOC(=O)Nc1cc(NC(C)CCCN(CC)CC)c2nc(-c3ccccc3)c(-c3ccccc3)nc2n1 (centres undefined) | 4.47 |
| CCN(CC)CCCC(C)Nc1cc(N)nc2nc(-c3cccs3)c(-c3cccs3)nc12 (centres undefined) | 4.53 |
| CCOC(=O)Nc1cc(NCCCCN(CC)CC)c2nc(-c3ccccc3)c(-c3ccccc3)nc2n1 | 4.28 |
